# Test system: CAKI-1 renal
# Run Description: NCI tumour cell line growth inhibition, 48 h
Measurement Type: TGI

>>> value("COC(=O)CSc1n[nH]c(-c2ccccc2)n1")
"> 100 µM"
>>> value("N=C1/C(=C/c2ccccc2)C(=O)N=C2SC=NN12")
"> 100 µM"
>>> value("COc1cc(CC(C)N[C@@H](C)c2ccccc2)cc(OC)c1 (stereo not given in full)")
"> 100 µM"
>>> value("CN(C)CCCNC(=O)c1cccc2nc3ccccc3nc12")
"> 78.2 µM"
>>> value("O=C(O)CC1C(=O)OC2C3COC(=O)c4cc(O)c(O)c(O)c4-c4c(cc(O)c(O)c4O)C(=O)OC2C(OC(=O)c2cc(O)c(O)c4c2C1C(O)C(=O)O4)C(OC(=O)c1cc(O)c(O)c(O)c1)O3 (stereo not given)")
"42.9 µM"

* * *

# Test system: SNB-19 CNS
# Run Description: NCI tumour cell line growth inhibition, 48 h
# key: entry, value: TGI
Measurement Type: TGI

>>> value("Cc1cc(O)c2cc3c(O)c(O)ccc3cc2c1")
"> 100 µM"
>>> value("CN(C)CCCNC(=O)c1cccc2nc3ccccc3nc12")
"> 100 µM"
>>> value("CN(C)C=NCc1ccc2c(c1)OCO2")
"> 100 µM"

* * *

# System: M14 melanoma
# Run Description: NCI tumour cell line growth inhibition, 48 h
Measurement Type: TGI

>>> value("CNC(=O)C1CCC(=O)N1CN(C(C)=O)c1ccccc1 (centres undefined)")
"> 100 µM"
>>> value("O=c1c(-c2ccc3c(c2)OCO3)coc2c(CO)c(O)ccc12")
"14.8 µM"
>>> value("COC(=O)CSc1n[nH]c(-c2ccccc2)n1")
"> 100 µM"
>>> value("N=c1oc2ccc([N+](=O)[O-])cc2cc1C(=O)Nc1ccccn1")
"> 100 µM"

* * *

Measured GI50 by item
# Test system: MDA-MB-231 breast
# Run Description: NCI tumour cell line growth inhibition, 48 h
Measurement Type: GI50

>>> value("O=c1[nH]cc(CO)c(=O)[nH]1")
"> 100 µM"
>>> value("[CH3][Sn]([CH3])([CH3])[O]C(=O)C(O)c1ccccc1 (stereo not drawn)")
"39.2 µM"
>>> value("CCCCCCCCn1ccc2cc(NC(=O)Cn3cc(CN4CCC(C)CC4)nn3)ccc21")
"1.71 µM"

* * *

# Test system: KM12 colon
# Run Description: NCI tumour cell line growth inhibition, 48 h
Listing: TGI of selected molecules
Measurement Type: TGI

>>> value("CCOC(=O)CCC(NC(=O)c1ccc(OCc2ccc3nc(OC)c(OC)nc3c2)cc1)C(=O)OCC (stereo not drawn)")
"> 100 µM"
>>> value("CC(=O)OCC1=C2C(OC(=O)C(C)C)CC3(COC(C)=O)OC3/C=C\\C3(C)OC3C2OC1=O (stereo not drawn)")
"> 100 µM"
>>> value("CN(C)C=NCc1ccc2c(c1)OCO2")
"> 100 µM"

* * *

// GI50 lookup, one value per entry
# Test system: SN12C renal
# Run Description: NCI tumour cell line growth inhibition, 48 h
Measurement Type: GI50

>>> value("CCOP(=O)(CCN1CCN(CCCCCOc2cc3c(cc2OC)C(=O)N2CCC[C@H]2C=N3)CC1)OCC")
"5.18 µM"
>>> value("COc1ccc(-c2nnc(Nc3nc(O)c(C4=c5cc(OC(F)(F)F)ccc5=NC4=O)s3)o2)cc1")
"16.5 µM"
>>> value("O=C1c2cccc3cccc(c23)C(=O)N1CC#Cc1ccc2c3c(cccc13)C(=O)N(CCN1CCNCC1)C2=O")
"1.71 µM"

* * *

Recorded TGI by entry
# Test system: OVCAR-8 ovarian
# Run Description: NCI tumour cell line growth inhibition, 48 h
Measurement Type: TGI

>>> value("COc1ccccc1NC(=O)CC(=O)n1nc(-c2ccccc2)c(N=Nc2ccccc2[N+](=O)[O-])c1-c1ccccc1")
"> 100 µM"
>>> value("[O-]/N=N\\c1on[n+](CCc2ccccc2)c1Cc1c(/N=N/[O-])on[n+]1CCc1ccccc1")
"46.4 µM"
>>> value("O=[N+]([O-])c1ccc(N/N=C/c2ccccc2O)nc1")
"51.2 µM"
>>> value("Clc1cc2nnn(C3CCCCO3)c2cc1Cl (stereo not given)")
"> 100 µM"
>>> value("COc1cc(-c2ccc(Nc3ccccc3C(=O)O)c(OC)c2)ccc1Nc1ccccc1C(=O)O")
"81.5 µM"

* * *

# System: IGROV1 ovarian
# Run Description: NCI tumour cell line growth inhibition, 48 h
Measurement Type: TGI

>>> value("O=C(O)c1cccc(S(=O)(=O)NN2C(=O)CSC2c2ccccc2Cl)c1 (centres undefined)")
"> 100 µM"
>>> value("CSC1=N/C(=C\\c2ccccc2)C(=O)N1CN1CCOCC1")
"> 100 µM"
>>> value("COc1ccc(/C=N/NS(=O)(=O)c2ccc(/C=C3\\NC(=O)N(C)C3=O)cc2)cc1")
"> 100 µM"
>>> value("CCNC(=S)Nc1c(C#N)c2n(c1C(=O)OCC)CCCCC2")
"> 100 µM"
>>> value("CC(C)(C)C1CCC(CI)(N=[N+]=[N-])CC1 (centres undefined)")
"> 100 µM"
>>> value("Clc1cc2nnn(C3CCCCO3)c2cc1Cl (centres undefined)")
"> 100 µM"
>>> value("CCCCCCCCCCCCNC(=O)[C@H]1CSC(c2cc(Br)cs2)N1 (some centres undefined)")
"2.19 µM"
>>> value("CCOC(=O)c1c(C(F)(F)F)n([O-])c2ccc(Cl)cc2[n+]1=O")
"3.77 µM"
>>> value("COc1ccc(/C=c2\\sc3nnc(CCC(=O)Nc4cccc(C(F)(F)F)c4)n3c2=O)cc1")
"> 100 µM"
>>> value("O=C1c2cccc3cccc(c23)C(=O)N1CC#Cc1ccc2c3c(cccc13)C(=O)N(CCN1CCNCC1)C2=O")
"13 µM"
>>> value("c1csc(-c2sc(-c3ccsc3)cc2Cc2ccsc2)c1")
"> 10 µM"
>>> value("C/C(=C\\CCc1ccsc1)CC/C=C(\\C)CCCN1CCN(CCO)CC1")
"18.9 µM"
>>> value("C[C@@H](Oc1cc(-c2cnn(C3CC4(CNC4)C3)c2)cnc1N)c1c(Cl)ccc(F)c1Cl")
"21.5 µM"
>>> value("Cc1ccc(NC(=O)CC(=O)n2nc(-c3ccccc3)c(N=Nc3ccccc3C(=O)O)c2-c2ccccc2)cc1")
"> 100 µM"
>>> value("CC1C2CC(CC2O)C1(C)C (centres undefined)")
"> 100 µM"
>>> value("C[N+](C)(C)CC(=O)N/N=C/c1oc(-c2cccc([N+](=O)[O-])c2)c(-c2cccc([N+](=O)[O-])c2)c1[N+](=O)[O-]")
"> 100 µM"
>>> value("CC12OC3(C(O)C1O)C(C(=O)O[C@H]3CO[Si](C)(C)C(C)(C)C)C2S(=O)(=O)c1ccccc1 (some centres undefined)")
"97.4 µM"
>>> value("O=C(O)c1ccccc1-c1ccccc1C(=O)Nc1ccc2c(c1)Cc1ccccc1-2")
"> 100 µM"
>>> value("Cc1ccc2c(n1)C(=O)C(Cl)=C(Nc1ccc(N3CCN(C)CC3)cc1)C2=O")
"3.6 µM"
>>> value("COc1cc(-c2ccccc2)c(OC)cc1CCl")
"> 100 µM"
>>> value("Cc1cc(O)c2c(c1)C(=O)C=C(Br)C2=O")
"> 60.2 µM"
>>> value("Cc1cc(C(=O)N2CCN(C)CC2)c2c(=O)n(-c3ccccc3)c(=O)n(CC(O)CN3CCN(c4ncccn4)CC3)c2n1 (centres undefined)")
"> 100 µM"
>>> value("O=S(=O)(c1ccccc1)[C@@H]1[C@H]2C=C[C@](CS)(O2)[C@H]1S(=O)(=O)c1ccccc1")
"> 100 µM"
>>> value("N=C1/C(=C/c2ccccc2)C(=O)N=C2SC=NN12")
"> 100 µM"

* * *

# System: HOP-92 NSCLC
# Run Description: NCI tumour cell line growth inhibition, 48 h
Below, each of the molecules is paired with its reported TGI value.
Measurement Type: TGI

>>> value("CSc1ncc2c(C#N)c3ccccn3c(=O)c2n1")
"> 100 µM"
>>> value("CC(=O)NC1CCCN(O)C(=O)/C=C(/C)CCOC(=O)C(NC(C)=O)CCCN(O)C(=O)/C=C(/C)CCOC(=O)C(NC(C)=O)CCCN(O)C(=O)/C=C(/C)CCOC1=O.[Fe] (stereo not given)")
"> 100 µM"
>>> value("CC(C)(C)C1CCC(CI)(N=[N+]=[N-])CC1 (stereo not given)")
"> 100 µM"
>>> value("COC(=O)NN/C=C(\\C=Nc1ccccc1)[N+](=O)[O-]")
"> 100 µM"
>>> value("CN=c1ss/c(=N\\C(=S)N(C)C)n1C1CCCCC1")
"> 10 µM"
